READOUT KIND: melting point

See these solved cases before continuing.
CCOP(=O)(OCC)C(NC(=O)COC(=O)[C@]1(C)CCC[C@@]2(C)[C@@H]3CC[C@@]4(C)C[C@]3(CC[C@@H]21)CC4=O)c1ccc(Cl)cc1 (stereo partly drawn) [Compound 6b] | 149 to 150 °C
COc1ccc(NC(=O)COC(=O)[C@]2(C)CCC[C@@]3(C)[C@@H]4CC[C@@]5(C)C[C@]4(CC[C@@H]32)CC5=O)cc1 [Compound 4i] | 86 to 88 °C
CCOP(=O)(OCC)C(NC(=O)COC(=O)[C@]1(C)CCC[C@@]2(C)[C@@H]3CC[C@@]4(C)C[C@]3(CC[C@@H]21)CC4=O)c1ccc(OC)cc1 (stereo partly drawn) [Compound 6c] | 134 to 135 °C
CCOP(=O)(OCC)C(NC(=O)COC(=O)[C@]1(C)CCC[C@@]2(C)[C@@H]3CC[C@@]4(C)C[C@]3(CC[C@@H]21)CC4=O)c1ccc(C)cc1 (stereo partly drawn) [Compound 6d] | 119 to 120 °C

Problem: GET /values?readout=melting point&item= CCN1CCN(C(=O)COC(=O)[C@]2(C)CCC[C@@]3(C)[C@@H]4CC[C@@]5(C)C[C@]4(CC[C@@H]32)CC5=O)CC1 [Compound 2b]
Result: 115 to 117 °C

Problem: Could you tell me which melting point is on file for COC(=O)[C@@H](NC(=O)[C@]1(C)CCC[C@@]2(C)[C@@H]3CC[C@@]4(C)C[C@]3(CC[C@@H]21)CC4=O)c1ccccc1 [Compound 3a] ?
Result: 143 to 145 °C
